Measured normalized growth accompanies every entry in the list below.
assay_remarks: chemical genetic growth profiling, strain panel (AID 1159580);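 further: tested at 20 µM; growth read once vehicle control cultures reached saturation at 30 °C; 1 = growth at the plate median or of vehicle wells; lower values mean less growth of the strain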
experimental_setup: S. cerevisiae deletion strains, growth OD, locus YKR091W, strain srl3, hits give low values
The campaign covered roughly 5,500 compounds. About 2,000 (36%) were called active. Inconclusive results (about 18%) are left out. The list shows a part of the results.
measured_endpoint: normalized growth

INSERT INTO measurements (molecule, number) VALUES
  ('CCN(CC)CCOc1ccc2c(c1)C(=O)c1cc(OCCN(CC)CC)ccc1-2', 0.982),
  ('CN/C(=C\[N+](=O)[O-])NCCSCc1ccc(CN(C)C)o1', 0.988),
  ('CN(C)CCOC(C)(c1ccccc1)c1ccccn1 (centres undefined)', 1.01),
  ('Nc1ccc(C(=O)NCC(=O)O)cc1', 0.999);

---

assay_remarks: chemical genetic growth profiling, strain panel (AID 1159580)
experimental_setup: S. cerevisiae deletion strains, growth OD, locus YEL003W, strain gim4, hits give low values
About 2,000 (36%) of roughly 5,500 compounds were called active. Not shown: some 18% with an inconclusive outcome. Some of the results follow.
measured_endpoint: normalized growth

INSERT INTO measurements (molecule, number) VALUES
  ('CC(=O)NCCCS(=O)(=O)O', 1.01),
  ('CC(=O)Oc1ccc(Cl)c2cccnc12', 0.0532),
  ('CCN(CC)CCOc1ccc(/C(=C(\Cl)c2ccccc2)c2ccccc2)cc1', 0.133),
  ('Oc1c(I)cc(I)c2cccnc12', 0.127),
  ('CCN(CC)CCOc1ccc2c(c1)C(=O)c1cc(OCCN(CC)CC)ccc1-2', 0.99),
  ('O=C1C=CC2=C3c4cc(O)c(O)cc4CC3(O)COC2=C1O (stereo not drawn)', 1.01),
  ('NCC(O)c1ccc(O)cc1 (stereo not drawn)', 1.01),
  ('Oc1c(Cl)cc(Cl)c2cccnc12', 0.0637);

---

assay_remarks: chemical genetic growth profiling, strain panel (AID 1159580)
experimental_setup: S. cerevisiae deletion strains, growth OD, locus YCL069W, strain vba3, hits give low values
Hit rate of the full screen: of about 5,500 compounds, about 2,000 (36%) were called active. Inconclusive results (about 18%) are left out. The list shows a part of the results.
measured_endpoint: normalized growth

INSERT INTO assay_data (molecule, measured_endpoint, result) VALUES
  ('C=C[C@@H](C1=CC(=O)C(OC)=C(OC)C1=O)c1ccccc1', 'normalized growth', '0.45 (active)'),
  ('C=CC(C1=CC(=O)C(OC)=CC1=O)c1ccc(O)cc1 (stereo not given)', 'normalized growth', '1.01 (inactive)'),
  ('Cc1c(O)c(O)cc2c1CC=C1[C@@]2(C)CC[C@@]2(C)C3C[C@](C)(C(=O)O)CC[C@]3(C)CC[C@]12C (stereo not given in full)', 'normalized growth', '0.668 (active)'),
  ('C=CC(C1=CC(=O)C=CC1=O)c1ccccc1 (stereo not given)', 'normalized growth', '1 (inactive)'),
  ('O=C(O)C1=CCNCC1', 'normalized growth', '1.01 (inactive)'),
  ('C=CC(C1=CC(=O)C(OC)=CC1=O)c1ccccc1 (stereo not given)', 'normalized growth', '0.954 (inactive)'),
  ('O=C(O)CF', 'normalized growth', '1.02 (inactive)'),
  ('C=C(C)[C@H]1CC=C(C(=O)O)CC1', 'normalized growth', '0.984 (inactive)'),
  ('O=C(NC(=O)c1c(F)cccc1F)Nc1ccc(Cl)cc1', 'normalized growth', '0.996 (inactive)'),
  ('O=C1C=CC2=C3c4cc(O)c(O)cc4CC3(O)COC2=C1O (stereo not given)', 'normalized growth', '1.03 (inactive)');

---

Measured normalized growth accompanies every entry in the list below.
assay_remarks: chemical genetic growth profiling, strain panel (AID 1159580);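 further: tested at 20 µM; growth read once vehicle control cultures reached saturation at 30 °C; 1 = growth at the plate median or of vehicle wells; lower values mean less growth of the strain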
experimental_setup: S. cerevisiae deletion strains, growth OD, locus YGR040W, strain KSS1, hits give low values
About 2,000 (36%) of roughly 5,500 compounds were called active. Inconclusive results (about 18%) are left out. This is one part of the list.
measured_endpoint: normalized growth

INSERT INTO assay_data (structure_as_smiles, measured_endpoint, number) VALUES
  ('CCCc1c(C(=O)NC2Cc3ccccc3C2)cnn1-c1ccccc1', 'normalized growth', 0.96),
  ('O=C(c1ccccc1)c1cc(Cl)ccc1NC(=S)Nc1ccc(F)cc1', 'normalized growth', 0.967),
  ('O=c1c(Cl)c(-n2cccn2)cnn1-c1ccc(Cl)cc1Cl', 'normalized growth', 0.883),
  ('CC(=O)c1sc(SCCS(=O)(=O)c2ccc(C)cc2)c2c1CC(C)(C)CC2=O', 'normalized growth', 0.675),
  ('O=S(=O)(N/N=C\c1ccc(Cl)cc1)c1ccc(-c2ccccn2)s1', 'normalized growth', 0.96),
  ('FC(F)(F)c1cccc(NC(=S)Nc2csc(C(F)(F)F)c2-c2ccccc2)c1', 'normalized growth', 0.981),
  ('N#CCC(=O)NNC(=S)Nc1ccc(Cl)c(Cl)c1', 'normalized growth', 0.93);

---

Measured normalized growth accompanies every entry in the list below.
assay_remarks: chemical genetic growth profiling, strain panel (AID 1159580);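 further: tested at 20 µM; growth read once vehicle control cultures reached saturation at 30 °C; 1 = growth at the plate median or of vehicle wells; lower values mean less growth of the strain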
experimental_setup: S. cerevisiae deletion strains, growth OD, locus YNL197C, strain WHI3, hits give low values
Screen size: about 5,500 compounds; about 2,000 (36%) were called active. Not shown: some 18% with an inconclusive outcome. Some of the results follow.
measured_endpoint: normalized growth

INSERT INTO assay_data (compound, number) VALUES
  ('CN1CCC(c2c[nH]c3ccc(O)cc23)CC1', 0.999),
  ('CN(C)C(N)=NCCC[C@H](N)C(=O)O', 1.02),
  ('CCCn1c(C)c(C(=O)c2ccc3ccccc3c2)c2ccccc21', 0.977),
  ('Cc1cccc(C(=O)NCN2CCN(c3ccccc3C#N)CC2)c1', 0.976),
  ('C[C@@]1(C2CCCC2)Cc2cc(OCC(=O)O)c(Cl)c(Cl)c2C1=O', 1),
  ('OC[C@H]1O[C@@H](n2cnc3c(NCCc4ccccc4)ncnc32)C(O)[C@H]1O (some centres undefined)', 0.991),
  ('Cc1cccc(C)c1NC(=O)C[N+](C)(C)C', 0.989),
  ('O=C(O)c1cccnc1Nc1cccc(C(F)(F)F)c1', 1),
  ('N=c1c[n+](N2CCOCC2)[n-]o1', 0.999);

---

assay_remarks: chemical genetic growth profiling, strain panel (AID 1159580);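 further: tested at 20 µM; growth read once vehicle control cultures reached saturation at 30 °C; 1 = growth at the plate median or of vehicle wells; lower values mean less growth of the strain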
experimental_setup: S. cerevisiae deletion strains, growth OD, locus YLR058C, strain SHM2, hits give low values
The whole screen tested about 5,500 compounds, of which about 2,000 (36%) were called active. Another 18% or so got no clear call; they are omitted. The list shows a part of the results.
measured_endpoint: normalized growth

INSERT INTO assay_data (compound, number) VALUES
  ('CNc1ccccc1C(=O)O', 1.02),
  ('Nc1ncnc2c1ncn2C1C[C@H](O)[C@@H](CO)O1 (stereo partly specified)', 0.985),
  ('O=C(O)c1cccnc1Nc1cccc(C(F)(F)F)c1', 0.969),
  ('O=C1O[C@H](C(O)CO)C(O)=C1O (stereo partly specified)', 1.01),
  ('Nc1ccc(S(=O)(=O)Nc2ccc(Cl)nn2)cc1', 1.01),
  ('C1CCN2C[C@@H]3C[C@H](CN4CCCC[C@@H]34)[C@H]2C1', 1.01),
  ('O=[N+]([O-])c1cc(O)c(O)c([N+](=O)[O-])c1', 1.01),
  ('COc1cc2c(c(OC)c1OC)-c1ccc(O)c(=O)cc1[C@@H](NC(C)=O)CC2', 0.691),
  ('C=CC(C1=CC(=O)C=CC1=O)c1ccccc1 (stereo unspecified)', 0.958),
  ('NCC(CC(=O)O)c1ccc(Cl)s1 (stereo unspecified)', 0.985),
  ('CN[C@H](CC(=O)O)C(=O)O', 0.989),
  ('CCCCC(CC)CN1CN(CC(CC)CCCC)CC(C)(N)C1 (stereo unspecified)', 0.525),
  ('CC(=O)Nc1cc([As](=O)(O)O)ccc1O', 0.994),
  ('NCCNC(=O)c1ccc(Cl)cc1', 0.988),
  ('COc1c2c(cc3c1OCO3)CCN(C)C2', 1.01),
  ('O=[N+]([O-])c1cc([As](=O)(O)O)ccc1O', 0.998),
  ('Cc1c(O)c(O)cc2c1CC=C1[C@@]2(C)CC[C@@]2(C)C3C[C@](C)(C(=O)O)CC[C@]3(C)CC[C@]12C (stereo partly specified)', 0.894),
  ('CCN(CC)CCNC(=O)c1cc(S(C)(=O)=O)ccc1OC', 1.01),
  ('Oc1c(Br)cc(Br)c2cccnc12', 0.0497),
  ('NC[C@H](O)c1ccc(O)c(O)c1', 1.01),
  ('O[N+]1=CC=CCC1=S.On1ccccc1=S.[Zn]', 0.0528),
  ('CC(=O)c1c(O)c(C)c(O)c2c1OC1=CC(=O)C(C(C)=O)C(=O)C12C (stereo unspecified)', 1.01),
  ('CCCC1O[C@@H]2CC3C4CCC5=CC(=O)C=CC5(C)C4[C@@H](O)CC3(C)[C@]2(C(=O)CO)O1 (stereo partly specified)', 1),
  ('O=C(O)CF', 0.993),
  ('C[C@H]1[C@H]2CCC3C4CC=C5C[C@@H](N(C)C)CC[C@]5(C)C4CC[C@@]32CN1C (stereo partly specified)', 0.98),
  ('CC(=O)OCC1(C)CCC2(C)CCC3(C)C4=CCc5c(cc(OC(C)=O)c(OC(C)=O)c5C)C4(C)CCC3(C)C2C1 (stereo unspecified)', 1.02),
  ('N[C@@H](Cc1ccc(O)c(O)c1)C(=O)O', 0.996),
  ('Cc1ccc(/C(=C\CN2CCCC2)c2ccccn2)cc1', 1.01),
  ('CC1(C)CC2C1(O)CCC1(C)C=CC(O)C21CO (stereo unspecified)', 0.983),
  ('CN/C(=C\[N+](=O)[O-])NCCSCc1ccc(CN(C)C)o1', 1.03),
  ('C1CNCCN1', 1.01),
  ('C1CCN2CC3CC(CN4CCCCC34)C2C1 (stereo unspecified)', 1.02),
  ('C=C[C@@H](C1=CC(=O)C(OC)=C(OC)C1=O)c1ccccc1', 0.98),
  ('Oc1c(Cl)cc(Cl)c2cccnc12', 0.0468),
  ('NCC(O)c1ccc(O)cc1 (stereo unspecified)', 0.995),
  ('CN(C)CCOC(C)(c1ccccc1)c1ccccn1 (stereo unspecified)', 0.993),
  ('Nc1nc2c(ncn2C2C[C@H](O)[C@@H](CO)O2)c(=O)[nH]1 (stereo partly specified)', 1),
  ('CC/C(=C(\c1ccccc1)c1ccc(OCCN(C)C)cc1)c1ccccc1', 0.0464),
  ('O=c1[nH]c(=O)n(C2C[C@@H](O)[C@@H](CO)O2)cc1F (stereo partly specified)', 1.02),
  ('O=C(O)CCCCC1CCSS1 (stereo unspecified)', 0.968),
  ('Nc1ccc(C(=O)NCC(=O)O)cc1', 0.998),
  ('COc1cc(C(=O)NCc2ccc(OCCN(C)C)cc2)cc(OC)c1OC', 0.97),
  ('CCN(CC)CCOc1ccc2c(c1)C(=O)c1cc(OCCN(CC)CC)ccc1-2', 0.994),
  ('c1ccc2c3c([nH]c2c1)CNCC3', 0.985),
  ('CC(Cc1ccc(O)c(O)c1)C(C)Cc1ccc(O)c(O)c1 (stereo unspecified)', 0.643),
  ('Nc1ccc(S(=O)(=O)Nc2ccccn2)cc1', 1.01);

The values you see were collected from PubChem BioAssay AID1159580.
